Please go through the items and note down their MIC.
- Test system: STREPTOCOCCUS PYOGENES EES61
- experiment: In vitro antibacterial activity, MIC, BHI agar dilution
- Format: cell-based
- conditionDescription: S. pyogenes EES61, unit assumed
Number only, in µg/mL; omit the unit.

Prompt line: // lookup MIC for `CC[C@H]1OC(=O)[C@H](C)C(=O)[C@H](C)[C@@H](O[C@@H]2O[C@H](C)C[C@H](N(C)C)[C@H]2O)[C@](C)(OC)C[C@@H](C)C2=N[C@H](COCc3ccccc3F)CN3C(=O)O[C@@]1(C)[C@H]3[C@H]2C`
Response line: 0.01

Prompt line: // lookup MIC for `CC[C@H]1OC(=O)[C@H](C)C(=O)[C@H](C)[C@@H](O[C@@H]2O[C@H](C)C[C@H](N(C)C)[C@H]2O)[C@](C)(OC)C[C@@H](C)C2=N[C@H](COCc3ccccn3)CN3C(=O)O[C@@]1(C)[C@H]3[C@H]2C`
Response line: 0.05

Prompt line: // lookup MIC for CC[C@H]1OC(=O)[C@H](C)C(=O)[C@H](C)[C@@H](O[C@@H]2O[C@H](C)C[C@H](N(C)C)[C@H]2O)[C@](C)(OC)C[C@@H](C)C2=NC3CN(Cc4ccccc4)CC3N3C(=O)O[C@@]1(C)[C@H]3[C@H]2C (stereo partly drawn)
Response line: 0.005

Prompt line: // lookup MIC for CCC1OC(=O)C(C)C(=O)C(C)C(OC2OC(C)CC(N(C)C)C2O)C(C)(OC)CC(C)C2=NC(CCOc3ccccc3)CN3C(=O)OC1(C)C3C2C (stereo not drawn)
Response line: 0.05

Prompt line: // lookup MIC for CCC1OC(=O)C(C)C(=O)C(C)C(OC2OC(C)CC(N(C)C)C2O)C(C)(OC)CC(C)C2=NCC(CCc3ccccc3)N3C(=O)OC1(C)C3C2C (stereo not drawn)
Response line: 0.01

Prompt line: // lookup MIC for CC[C@H]1OC(=O)[C@H](C)C(=O)[C@H](C)[C@@H](O[C@@H]2O[C@H](C)C[C@H](N(C)C)[C@H]2O)[C@](C)(OC)C[C@@H](C)C2=NCC(COC(=O)c3ccnc4ccccc34)N3C(=O)O[C@@]1(C)[C@H]3[C@H]2C (stereo partly drawn)
Response line: 0.01

Prompt line: // lookup MIC for CC[C@H]1OC(=O)[C@H](C)C(=O)[C@H](C)[C@@H](O[C@@H]2O[C@H](C)C[C@H](N(C)C)[C@H]2O)[C@](C)(OC)C[C@@H](C)C2=NC3CN(C=O)CC3N3C(=O)O[C@@]1(C)[C@H]3[C@H]2C (stereo partly drawn)
Response line: 0.02

====

Please go through the items and note down their MIC.
- Tested on: STAPHYLOCOCCUS AUREUS CMX 553
- experiment: In vitro antibacterial activity, MIC, BHI agar dilution
- Type: cell-based
- conditionDescription: S. aureus CMX 553, unit assumed
Number only, in µg/mL; omit the unit.

Prompt line: // lookup MIC for CC[C@H]1OC(=O)[C@H](C)C(=O)[C@H](C)[C@@H](O[C@@H]2O[C@H](C)C[C@H](N(C)C)[C@H]2O)[C@](C)(OC)C[C@@H](C)C2=NCC(COC(=O)c3cc4ccccc4n3C)N3C(=O)O[C@@]1(C)[C@H]3[C@H]2C (stereo partly shown) [Example 143]
Response line: 0.2

Prompt line: // lookup MIC for CCC1OC(=O)C(C)C(=O)C(C)C(OC2OC(C)CC(N(C)C)C2O)C(C)(OC)CC(C)C2=NCC(COCc3ccccc3F)N3C(=O)OC1(C)C3C2C (stereo not shown) [Example 73]
Response line: 0.1

Prompt line: // lookup MIC for CCC1OC(=O)C(C)C(=O)C(C)C(OC2OC(C)CC(N(C)C)C2O)C(C)(OC)CC(C)C2=NC(COCc3ccc(N(C)C)cc3)CN3C(=O)OC1(C)C3C2C (stereo not shown) [Example 76]
Response line: 0.39

Prompt line: // lookup MIC for CC[C@H]1OC(=O)[C@H](C)C(=O)[C@H](C)[C@@H](O[C@@H]2O[C@H](C)C[C@H](N(C)C)[C@H]2O)[C@](C)(OC)C[C@@H](C)C2=NC[C@H](Cc3ccccc3)N3C(=O)O[C@@]1(C)[C@H]3[C@H]2C [Example 5]
Response line: 0.2

Prompt line: // lookup MIC for CC[C@H]1OC(=O)[C@H](C)C(=O)[C@H](C)[C@@H](O[C@@H]2O[C@H](C)C[C@H](N(C)C)[C@H]2O)[C@](C)(OC)C[C@@H](C)C2=N[C@H](CCOCc3ccccc3)CN3C(=O)O[C@@]1(C)[C@H]3[C@H]2C [Example 92]
Response line: 0.39

Prompt line: // lookup MIC for CC[C@H]1OC(=O)[C@H](C)C(=O)[C@H](C)[C@@H](O[C@@H]2O[C@H](C)C[C@H](N(C)C)[C@H]2O)[C@](C)(OC)C[C@@H](C)C2=NC3CN(C)CC3N3C(=O)O[C@@]1(C)[C@H]3[C@H]2C (stereo partly shown) [Example 114]
Response line: 1.56

Prompt line: // lookup MIC for CC[C@H]1OC(=O)[C@H](C)C(=O)[C@H](C)[C@@H](O[C@@H]2O[C@H](C)C[C@H](N(C)C)[C@H]2O)[C@](C)(OC)C[C@@H](C)C2=NCC(CNCc3ccccc3)N3C(=O)O[C@@]1(C)[C@H]3[C@H]2C (stereo partly shown) [Example 131]
Response line: 0.39

====

- Test system: STREPTOCOCCUS PYOGENES PIU 2548
- experiment: In vitro antibacterial activity, MIC, BHI agar dilution
- Format: cell-based
- conditionDescription: S. pyogenes PIU 2548, unit assumed
readout: MIC (µg/mL)
Number only, in µg/mL; omit the unit.

Prompt line: // lookup MIC for `CC[C@H]1OC(=O)[C@H](C)C(=O)[C@H](C)[C@@H](O[C@@H]2O[C@H](C)C[C@H](N(C)C)[C@H]2O)[C@](C)(OC)C[C@@H](C)C2=N[C@@H]3CN(Cc4ccc(Cl)cc4)C[C@@H]3N3C(=O)O[C@@]1(C)[C@H]3[C@H]2C`
Response line: 0.78

Prompt line: // lookup MIC for CCC1OC(=O)C(C)C(=O)C(C)C(OC2OC(C)CC(N(C)C)C2O)C(C)(OC)CC(C)C2=NCC(CSc3ccccc3)(CN(C)Cc3ccccc3)N3C(=O)OC1(C)C3C2C (stereo not drawn)
Response line: 1.56

Prompt line: // lookup MIC for `CC[C@H]1OC(=O)[C@H](C)C(=O)[C@H](C)[C@@H](O[C@@H]2O[C@H](C)C[C@H](N(C)C)[C@H]2O)[C@](C)(OC)C[C@@H](C)C2=N[C@@H]3CCCC[C@@H]3N3C(=O)O[C@@]1(C)[C@H]3[C@H]2C`
Response line: 0.2

====

- Test system: STREPTOCOCCUS BOVIS A-5169
- experiment: In vitro antibacterial activity, MIC, BHI agar dilution
- Format: cell-based
- conditionDescription: S. bovis A-5169, unit assumed
readout: MIC

Prompt line: // lookup MIC for `CC[C@H]1OC(=O)[C@H](C)C(=O)[C@H](C)[C@@H](O[C@@H]2O[C@H](C)C[C@H](N(C)C)[C@H]2O)[C@](C)(OC)C[C@@H](C)C2=N[C@H](COCc3ccc(F)cc3)CN3C(=O)O[C@@]1(C)[C@H]3[C@H]2C`
Response line: ≤ 5 ng/mL

Prompt line: // lookup MIC for `CC[C@H]1OC(=O)[C@H](C)C(=O)[C@H](C)[C@@H](O[C@@H]2O[C@H](C)C[C@H](N(C)C)[C@H]2O)[C@](C)(OC)C[C@@H](C)C2=N[C@@H]3CN(CCc4ccccc4)C[C@@H]3N3C(=O)O[C@@]1(C)[C@H]3[C@H]2C`
Response line: ≤ 5 ng/mL

Prompt line: // lookup MIC for `CC[C@H]1OC(=O)[C@H](C)C(=O)[C@H](C)[C@@H](O[C@@H]2O[C@H](C)C[C@H](N(C)C)[C@H]2O)[C@](C)(OC)C[C@@H](C)C2=NC[C@@H](COCc3ccccc3)N3C(=O)O[C@@]1(C)[C@H]3[C@H]2C`
Response line: ≤ 5 ng/mL

====

- Test system: ESCHERICHIA COLI H560
- experiment: In vitro antibacterial activity, MIC, BHI agar dilution
- Type: cell-based
- conditionDescription: E. coli H560, unit assumed
readout: MIC

Prompt line: // lookup MIC for CC[C@H]1OC(=O)[C@H](C)C(=O)[C@H](C)[C@@H](O[C@@H]2O[C@H](C)C[C@H](N(C)C)[C@H]2O)[C@](C)(OC)C[C@@H](C)C2=N[C@H](CCOCc3ccccc3)CN3C(=O)O[C@@]1(C)[C@H]3[C@H]2C [Example 92]
Response line: > 100 µg/mL

Prompt line: // lookup MIC for CCC1OC(=O)C(C)C(=O)C(C)C(OC2OC(C)CC(N(C)C)C2O)C(C)(OC)CC(C)C2=NCC(CSc3ccccc3)(CN(C)C)N3C(=O)OC1(C)C3C2C (stereo not drawn) [Example 135]
Response line: > 100 µg/mL

Prompt line: // lookup MIC for CC[C@H]1OC(=O)[C@H](C)C(=O)[C@H](C)[C@@H](O[C@@H]2O[C@H](C)C[C@H](N(C)C)[C@H]2O)[C@](C)(OC)C[C@@H](C)C2=NC3CN(CCOC)CC3N3C(=O)O[C@@]1(C)[C@H]3[C@H]2C (stereo partly drawn) [Example 126]
Response line: > 100 µg/mL

Reference source: patent US6274715A
